# Tested on: COLO 205 colon
# experiment: NCI tumour cell line growth inhibition, 48 h
Give measured TGI for each item. Keep answers brief.

COc1cc2c(cc1OCCCCN1CCN(CCCCOc3cc4c(cc3OC)C(=O)N3CCC[C@H]3C=N4)CC1)N=C[C@@H]1CCCN1C2=O; 0.0354 µM
CN(CCO)/N=N/c1nc[nH]c1C(N)=O; > 100 µM

Give TGI for all molecules that follow.
1. O=C1OC(OC/C(Br)=C(/Br)COC2OC(=O)C(Cl)=C2Cl)C(Cl)=C1Cl (stereo not given)
2. N#Cc1c(N2CCOCC2)ncn(-c2ccc(Cl)cc2)c1=O
3. COC(=O)CCC(C)[C@H]1CCC2C3C(C[C@H](OC(C)=O)[C@@]21C)[C@@]1(C)CCC2(C[C@H]1C[C@H]3OC(C)=O)OOC1(CCCCC1)OO2 (stereo not given in full)

Reply:
1: 10.4 µM; 2: > 100 µM; 3: > 100 µM

###

# System: SK-OV-3 ovarian
# experiment: NCI tumour cell line growth inhibition, 48 h
measured.parameter: GI50

Answered examples (5):
O=C1COCCN1c1ccc(NCc2cn(C(=O)c3ccc(Cl)cc3)c3ccccc23)cc1; 2.27 µM
Nc1cc(-c2ccccc2)n(C(=O)Nc2ccc(Oc3ccccc3)cc2)n1; 68.9 µM
Cc1c(C(N)=O)sc2c1c(=O)n(Cc1ccccc1)c1nnc(S(=O)(=O)CC(=O)Nc3ccc(Cl)cc3)n21; 3.24 µM
CC(=O)n1c(-c2ccc(Cl)c(Cl)c2)cn(-c2ccc(Cl)cc2)c1=O; 19.2 µM
COc1ccc2c(c1OC)C(=O)O[C@@H]2[C@H]1c2c(c(Br)c3c(c2OC)OCO3)CCN1C; > 100 µM

Give GI50 for all molecules that follow.
1. NCCSC(C[N+](=O)[O-])c1ccccc1Cl (configuration not stated)
2. COc1cc2c(cc1OCCCCCn1c3ccccc3c3ccccc31)N=C[C@@H]1CCCN1C2=O

Reply:
1: 11.7 µM; 2: 4.57 µM

###

# Tested on: HCT-116 colon
# experiment: NCI tumour cell line growth inhibition, 48 h; in the data active = GI50 below about 0.43 µM; inactive = the rest
Give one outcome, nothing more. List: TRUE = active, FALSE = inactive

Answered cases to consult:
O=C1COCCN1c1ccc(NCc2cn(C(=O)c3ccc(Cl)cc3)c3ccccc23)cc1; TRUE
Nc1cc(-c2ccccc2)n(C(=O)Nc2ccc(Oc3ccccc3)cc2)n1; FALSE
O=C(Cn1c2ccccc2c2ccncc21)N/N=C\c1ccc2ccccc2c1; FALSE

Task item: I would be grateful if you could indicate the recorded call for "Cc1ccc(S(=O)(=O)Nc2cc(Sc3ccccc3)c(O)c3ccccc23)cc1" .
Reply: FALSE

###

# Test system: PC-3 prostate
# experiment: NCI tumour cell line growth inhibition, 48 h; in the data active means GI50 below about 0.43 µM; inactive means the rest
Give one outcome, nothing more. List: active, inactive

Answered cases to consult:
CN(C)c1ncnc2c1ccn2C1OC(CO)C(O)C1O (centres undefined); inactive
COc1cc2nc(N3CCC[C@@H](NC4=CC(=O)c5ccccc5C4=O)C3)nc(N)c2cc1OC; inactive
Nc1ccccc1C#C/C=C\C#Cc1ccccc1F; inactive
Cc1ccc(-c2c3c(N)c4c(nc3nc3c2c(C)nn3-c2ccccc2)CCC4)cc1; inactive
CN(CCCN(C)CCC1CCCCC1)CCC1CCCCC1; inactive
NS(=O)(=O)c1ccc(N2N=C(c3cccs3)CC2c2ccccc2O)cc1 (centres undefined); inactive
COc1cc2c(cc1OCCCCCn1c3ccccc3c3ccccc31)N=C[C@@H]1CCCN1C2=O; inactive
Cn1ncnc1C1c2n[nH]c(=O)c3cc(F)cc(c23)NC1c1ccc(F)cc1 (centres undefined); inactive

Query molecule follows.
Task item: I would be grateful if you could indicate the recorded call for "C(=N/NC1=NCCN1)/c1c2ccccc2c(/C=N\NC2=NCCN2)c2ccccc12" .
Reply: active

###

Give measured TGI for each item. Keep answers brief.
# Test system: MCF7 breast
# experiment: NCI tumour cell line growth inhibition, 48 h
Numbers only, in µM.

C/C([O-])=C(/c1nc(-c2ccc([N+](=O)[O-])o2)no1)[n+]1cc(C)ccc1C; 16.2

We now examine a further molecule.
TGI reported for this molecule "C=CC[C@H]1[C@H](O[Si](C)(C)C(C)(C)C)C=CC(=O)[C@@H]1CC(=O)OCC" : 23.7

###

# System: SF-539 CNS
# experiment: NCI tumour cell line growth inhibition, 48 h
Give measured TGI for each item. Keep answers brief.

Answered examples (2):
O=C1c2c(ccc3c2CCCC3)CC1Cc1ccc2c(c1)CCCC2 (stereo unspecified); > 100 µM
Cc1ccccc1NC(=O)c1cc2ccccc2cc1O; 24.1 µM

Give TGI for all compounds that follow.
1. CNC(=O)c1cncc(/C=C/c2c(Cl)cccc2Cl)c1
2. CC1=C(C(=O)Nc2ccccc2C)C(c2ccccc2C)C(C(=O)Nc2ccccc2C)=C(C)N1
3. CC(=O)C1C(=O)C(=O)N(c2ccc(Br)cc2)C1=O (stereo unspecified)
4. O=C1/C(=C/c2ccc(Cl)cc2)Sc2scc(-c3cccc([N+](=O)[O-])c3)[n+]21
5. CCCCN(CCCC)CCC(O)c1cc2ccc(C(F)(F)F)cc2c2cc(C(F)(F)F)ccc12 (stereo unspecified)
6. CCOC(=O)c1c(NC(=O)c2ccc(Br)cc2)sc2c1CCCC2
7. O=C1COCCN1c1ccc(NCc2cn(C(=O)c3ccc(Cl)cc3)c3ccccc23)cc1

Reply:
> 25 µM
> 10 µM
> 100 µM
8.11 µM
5.44 µM
> 100 µM
26.2 µM

Give TGI for all compounds that follow.
1. O=c1[nH]c2c(c3ccccc13)CCc1ccccc1-2
2. COC1C(OC(N)=O)C(O)C(Oc2ccc3c(O)c(NC(=O)c4ccc(O)c(CC=C(C)C)c4)c(=O)oc3c2C)OC1(C)C (stereo unspecified)

Reply:
["> 100 µM", "> 100 µM"]

###

Give measured TGI for each item. Keep answers brief.
# System: KM20L2 colon
# experiment: NCI tumour cell line growth inhibition, 48 h

Answered examples (6):
CCCCCCCCCCCCCCCCCc1nnc(N)o1; > 100 µM
O=C1NN=CN2C(=O)CCC12 (centres undefined); > 100 µM
c1ccc2c(CN3CCC(C4CCN(Cc5cccc6ccccc56)CC4)CC3)cccc2c1; 10.3 µM
O=C(O)CN=c1c2ccccc2n(O)c2ccccc12; > 100 µM
CCOC(=O)c1cn(CC)c2cc3c(cc2c1=O)SCS3; > 100 µM
COc1ccc(/C=C(\Cl)c2ccc(OC)cc2)cc1; > 100 µM

Give TGI for all compounds that follow.
1. NC(=O)N/N=C(\CCC(=O)N(Cc1ccccc1)Cc1ccccc1)CC(=O)c1ccc(F)cc1
2. CC1=C(C(=O)Nc2ccccc2C)C(c2ccccc2C)C(C(=O)Nc2ccccc2C)=C(C)N1
3. CCN(CC)CCC(=O)O[C@H]1CC[C@H](CC(C)[C@H]2CC(=O)C(C)C=C(C)[C@H](OC(=O)CCN(CC)CC)C(OC)C(=O)[C@@H](C)CC(C)/C=C/C=C/C=C(C)C(OC)CC3CC[C@H](C)[C@](O)(O3)C(=O)C(=O)N3CCCCC3C(=O)O2)CC1OC (some centres undefined)

Reply:
1. > 100 µM
2. 38.9 µM
3. > 4.99 µM

###

# Tested on: SK-MEL-28 melanoma
# experiment: NCI tumour cell line growth inhibition, 48 h
measured.parameter: TGI

Answered examples (5):
Cn1c2ccccc2c2[nH]c3ccccc3c(=O)c21; > 100 µM
Cc1ccccc1NC(=O)CSc1nnc(Cc2ccccc2)o1; > 100 µM
CC(=O)n1c(-c2ccc(Cl)c(Cl)c2)cn(-c2ccc(Cl)cc2)c1=O; > 100 µM
CC(Nc1n[nH]c(=O)c2c1nnn2Cc1ccccc1)c1ccccc1 (stereo not drawn); > 100 µM
CC1=NN(c2ccccc2)C(=O)C1N=Nc1ccc(S(N)(=O)=O)cc1 (stereo not drawn); > 100 µM

Give TGI for all compounds that follow.
1. CC(C)(C)N=c1n(C(C)(C)C)oc(=O)n1-c1ccccc1
2. N#CCN(Cc1ccccc1)[C@@H]1CCC[C@]1(O)C#Cc1ccc2c(c1)OCO2
3. O=C1OC(OC/C(Br)=C(/Br)COC2OC(=O)C(Cl)=C2Cl)C(Cl)=C1Cl (stereo not drawn)

Reply:
1: > 50 µM; 2: 33.3 µM; 3: 23.3 µM

###

# Test system: TK-10 renal
# experiment: NCI tumour cell line growth inhibition, 48 h
*1 amine or outer side, *2 acyl side, *3 side chain or, on linkers, in order; H or OH if unused. Where a SMILES comes first, the peptide text is derived from it. [ ]: non-standard residue; d: D form. The star is where a group is joined. X31 = CC(=O)N(C)SCC(N[*:1])C(=O)[*:2]; Fmoc = O=C(OCC1c2ccccc2-c2ccccc21)*; For = O=C*
measured.parameter: TGI

Answered examples (7):
COc1ccccc1Cn1[nH]c(=O)c2cc([N+](=O)[O-])ccc21; > 100 µM
COc1cc2c(Cc3cc(OCc4ccccc4)ccc3N)nccc2c(OC)c1OC; > 10 µM
CCOC(=O)C(=O)Nc1cccc(C)c1C; > 100 µM
CC(=O)N(C)SCC(NC(=O)C(Cc1ccccc1)NC(=O)OCC1c2ccccc2-c2ccccc21)C(=O)NC(Cc1ccccc1)C(=O)NC(Cc1cn(C=O)c2ccccc12)C(=O)NC(CCCCNC(=O)OCC1c2ccccc2-c2ccccc21)C(=O)NC(C(=O)NC(CSN(C)C(C)=O)C(=O)NC(C(N)=O)C(C)O)C(C)O (stereo not drawn) (Fmoc-F[X31]FW(For)K(Fmoc)T[X31]T-NH2; configuration not given here); 67.5 µM
Cn1nc(C(=O)N2CC(CCl)c3c2cc([N+](=O)[O-])c2ccccc32)cc1NC(=O)Nc1cc(C(=O)N2CC(CCl)c3c2cc([N+](=O)[O-])c2ccccc32)nn1C (stereo not drawn); > 100 µM
O=CN1N=C(c2ccc(Nc3ccnc4cc(Cl)ccc34)cc2)CC1c1ccc(Cl)cc1 (stereo not drawn); > 100 µM
COc1ccc(/C=C(\Cl)c2ccc(OC)cc2)cc1; > 100 µM

Bench note, TK-10 renal: entry "CN(C)C(=S)SCC(N)=O" , its TGI = > 100 µM
